Biological target: Coagulation factor X (Homo sapiens, UniProt P00742)
Sequence (P00742 41-179 limits assumed): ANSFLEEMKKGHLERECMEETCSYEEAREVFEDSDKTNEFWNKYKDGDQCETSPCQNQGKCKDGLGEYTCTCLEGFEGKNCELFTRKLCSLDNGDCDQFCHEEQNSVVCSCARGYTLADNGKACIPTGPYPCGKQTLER
Sequence (P00742 235-488 limits assumed): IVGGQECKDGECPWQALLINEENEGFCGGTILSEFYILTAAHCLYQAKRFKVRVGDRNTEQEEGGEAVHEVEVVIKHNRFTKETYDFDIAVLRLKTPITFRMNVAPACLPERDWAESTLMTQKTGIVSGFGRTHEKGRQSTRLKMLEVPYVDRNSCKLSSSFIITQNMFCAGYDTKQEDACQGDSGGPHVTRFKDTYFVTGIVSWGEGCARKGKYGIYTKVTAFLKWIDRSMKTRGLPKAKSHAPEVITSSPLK
pKi: −log10 of the molar value.
Label scheme for pKi: lower than 7 is N, 7 and above is Y.

[ask] Quick check, pKi >= 7? CCc1nc2ccc(OC3CCN(C(C)=N)CC3)cc2n1Cc1cccc(-c2cccc(C(=N)N)c2)c1
[reply] Y

[ask] pKi >= 7 for CC(=N)N1CCC(Oc2ccc3c(nc(C(C)C)n3Cc3ccc4ccc(C(=N)N)cc4c3)c2[N+](=O)[O-])CC1 ?
[reply] Y

[ask] Could you tell me if the measured pKi of CCc1nc2c(NC(C)=O)c(OC3CCN(C(C)=N)CC3)ccc2n1Cc1ccc2ccc(C(=N)N)cc2c1 reaches 7 or more?
[reply] Y

[ask] Check this compound for pKi at or above 7: CCc1nc2ccc(OC3CCN(C(C)=N)CC3)cc2n1Cc1ccc(-c2cccc(C(=N)N)c2)cc1
[reply] Y

[ask] In plain terms: is recorded pKi at least 7 for CCc1nc2c([N+](=O)[O-])c(OC3CCN(C(C)=N)CC3)ccc2n1Cc1ccc2ccc(C(=N)N)cc2c1 ?
[reply] Y

[ask] Determine whether measured pKi meets or exceeds 7 for CCc1nc2cc(OC3CCN(C(C)=N)CC3)ccc2n1Cc1cccc(-c2ccc(C(=N)N)cc2)c1
[reply] N

[ask] Confirm if pKi reported for the compound CCc1nc2ccc(OC3CCN(C(C)=N)CC3)cc2n1Cc1ccc(-c2ccc(C(=N)N)cc2)cc1 is 7 or above.
[reply] N
